The measured values listed here are drawn from patent US20240400654A1.

Target: HRgpA-6H (Porphyromonas gingivalis) (UniProt P28784)
Experiment: ELISA, coated HRgpA-6H
Would you mind telling me the reported Ratio OD(Variant)/OD(WT) of each entry?
One number for each entry.

Batch lookup, Ratio OD(Variant)/OD(WT) per entry.
1. KB001 mouse Fab VL F33H (Fab, V domains shown) VH: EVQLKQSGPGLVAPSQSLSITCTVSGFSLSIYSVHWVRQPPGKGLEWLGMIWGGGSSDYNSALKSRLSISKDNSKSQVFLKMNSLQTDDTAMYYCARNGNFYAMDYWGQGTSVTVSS VL: QIVLTQSPAIMSASLGERVTMTCTASSSVSSSHLHWYQQKPGSSPQLWIYSTSNLASGVPARFSGSGSGTSYSLTISSMEAEDAATYYCHQYHHSPYIYTFGGGTKLEIK
2. KB001 mouse Fab VL S27M (Fab, V domains shown) VH: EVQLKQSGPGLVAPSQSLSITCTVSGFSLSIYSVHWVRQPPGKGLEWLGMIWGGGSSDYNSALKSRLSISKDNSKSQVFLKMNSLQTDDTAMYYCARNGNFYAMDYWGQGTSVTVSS VL: QIVLTQSPAIMSASLGERVTMTCTASMSVSSSFLHWYQQKPGSSPQLWIYSTSNLASGVPARFSGSGSGTSYSLTISSMEAEDAATYYCHQYHHSPYIYTFGGGTKLEIK

0.971
0.945
